# EXPERIMENTAL SYSTEM: E. coli TEM-1 β-lactamase (Escherichia coli)
# Construct: made in house; host or cells: E. coli BL21(DE3); whole overnight culture used undiluted, not purified
# Sequence (P62593 24-286 limits assumed): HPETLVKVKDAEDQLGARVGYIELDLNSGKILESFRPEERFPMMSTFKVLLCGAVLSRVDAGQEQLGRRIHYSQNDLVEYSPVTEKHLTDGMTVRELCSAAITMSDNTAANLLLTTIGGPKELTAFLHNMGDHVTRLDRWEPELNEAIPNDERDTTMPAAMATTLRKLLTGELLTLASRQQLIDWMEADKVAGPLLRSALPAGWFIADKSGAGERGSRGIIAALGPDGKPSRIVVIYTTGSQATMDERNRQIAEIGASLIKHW
# ASSAY OVERVIEW: Drug screening: E166Cf fluorescence in presence of bacterial β-lactamase culture
# Assay type: biochemical
# Parameters: key: −: Decline in fluorescence signal (presence of beta-lactam hydrolysis); +: No decline in fluorescence signal (absence of beta-lactam hydrolysis)
# CONDITION NOTES: E. coli TEM-1 culture, undiluted; antibiotic 1.0×10^−4 M; E166Cf 1.2×10^−7 M
READOUT: fluorescence signal of E166Cf (beta-lactam hydrolysis)

Previously resolved entries follow.
CO/N=C(\C(=O)N[C@@H]1C(=O)N2C(C(=O)O)=C(COC(N)=O)CS[C@H]12)c1ccco1 | +
CC1(C)S[C@@H]2[C@H](NC(=O)Cc3ccccc3)C(=O)N2[C@H]1C(=O)O | −
CO[C@@]1(NC(=O)Cc2cccs2)C(=O)N2C(C(=O)O)=C(COC(N)=O)CS[C@@H]21 | +
CO[C@@]1(NC(=O)C(C(=O)O)c2ccc(O)cc2)C(=O)N2C(C(=O)O)=C(CSc3nnnn3C)CO[C@@H]21 (stereo partly drawn) | +
CC1(C)S[C@@H]2[C@H](NC(=O)COc3ccccc3)C(=O)N2[C@H]1C(=O)O | −

Query: Write down measured fluorescence signal of E166Cf (beta-lactam hydrolysis) (E. coli TEM-1 β-lactamase (Escherichia coli)) for this compound. CC1(C)S[C@@H]2[C@H](NC(=O)[C@H](N)c3ccccc3)C(=O)N2[C@H]1C(=O)O
Reply: −

----------
# EXPERIMENTAL SYSTEM: B. cereus penPC β-lactamase (Bacillus cereus, UniProt P00809)
# Construct: made in house; host or cells: B. subtilis 1A304 (φ105MU331); whole culture used, not purified
# Sequence (P00809 28-306): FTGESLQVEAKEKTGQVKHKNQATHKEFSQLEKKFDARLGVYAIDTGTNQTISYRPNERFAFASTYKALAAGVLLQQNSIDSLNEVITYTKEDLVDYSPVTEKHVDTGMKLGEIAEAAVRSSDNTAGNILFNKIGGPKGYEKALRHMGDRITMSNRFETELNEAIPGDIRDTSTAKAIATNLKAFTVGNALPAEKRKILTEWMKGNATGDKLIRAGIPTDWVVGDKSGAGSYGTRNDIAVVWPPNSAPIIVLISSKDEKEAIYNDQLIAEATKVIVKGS
# ASSAY OVERVIEW: Drug screening: E166Cf fluorescence in presence of bacterial β-lactamase culture
# Type: biochemical
# Set-up: key: −: Decline in fluorescence signal (presence of beta-lactam hydrolysis); +: No decline in fluorescence signal (absence of beta-lactam hydrolysis)
# CONDITION NOTES: antibiotic 1.0×10^−4 M, E166Cf 1.2×10^−7 M
READOUT: fluorescence signal of E166Cf (beta-lactam hydrolysis)

CC1(C)S[C@@H]2[C@H](NC(=O)COc3ccccc3)C(=O)N2[C@H]1C(=O)O | −
CO/N=C(\C(=O)N[C@@H]1C(=O)N2C(C(=O)O)=C(COC(N)=O)CS[C@H]12)c1ccco1 | +
CO[C@@]1(NC(=O)C(C(=O)O)c2ccc(O)cc2)C(=O)N2C(C(=O)O)=C(CSc3nnnn3C)CO[C@@H]21 (stereo partly drawn) | +
CC1(C)S[C@@H]2[C@H](NC(=O)[C@H](N)c3ccccc3)C(=O)N2[C@H]1C(=O)O | −

I have 2 compounds here; please give me fluorescence signal of E166Cf (beta-lactam hydrolysis) for each one.
1. CO[C@@]1(NC(=O)Cc2cccs2)C(=O)N2C(C(=O)O)=C(COC(N)=O)CS[C@@H]21
2. CC1(C)S[C@@H]2[C@H](NC(=O)Cc3ccccc3)C(=O)N2[C@H]1C(=O)O

Reply:
1. +
2. −

----------
# EXPERIMENTAL SYSTEM: B. cereus β-lactamase II (Bacillus cereus, UniProt P04190)
# Construct: made in house; host or cells: B. subtilis 1A304 (φ105MU331); whole culture used, not purified
# Sequence (P04190 31-257): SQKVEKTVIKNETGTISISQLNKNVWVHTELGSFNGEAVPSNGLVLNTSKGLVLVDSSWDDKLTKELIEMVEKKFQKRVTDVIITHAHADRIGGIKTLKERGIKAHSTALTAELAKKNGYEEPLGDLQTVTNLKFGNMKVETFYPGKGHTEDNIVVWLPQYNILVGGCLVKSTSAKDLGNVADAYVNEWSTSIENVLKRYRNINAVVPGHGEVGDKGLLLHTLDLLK
# ASSAY OVERVIEW: Drug screening: E166Cf fluorescence in presence of bacterial β-lactamase culture
# Format: biochemical
# Parameters: key: −: Decline in fluorescence signal (presence of beta-lactam hydrolysis); +: No decline in fluorescence signal (absence of beta-lactam hydrolysis)
# CONDITION NOTES: antibiotic 1.0×10^−4 M, E166Cf 1.2×10^−7 M
READOUT: fluorescence signal of E166Cf (beta-lactam hydrolysis)

CO[C@@]1(NC(=O)C(C(=O)O)c2ccc(O)cc2)C(=O)N2C(C(=O)O)=C(CSc3nnnn3C)CO[C@@H]21 (stereo partly drawn) | +
CO/N=C(\C(=O)N[C@@H]1C(=O)N2C(C(=O)O)=C(COC(N)=O)CS[C@H]12)c1ccco1 | −
CC1(C)S[C@@H]2[C@H](NC(=O)Cc3ccccc3)C(=O)N2[C@H]1C(=O)O | −

----------
# EXPERIMENTAL SYSTEM: B. licheniformis penP β-lactamase (Bacillus licheniformis)
# Construct: made in house; host or cells: B. subtilis 1A304 (φ105MU331); whole culture used, not purified
# Sequence (P00808 27-307): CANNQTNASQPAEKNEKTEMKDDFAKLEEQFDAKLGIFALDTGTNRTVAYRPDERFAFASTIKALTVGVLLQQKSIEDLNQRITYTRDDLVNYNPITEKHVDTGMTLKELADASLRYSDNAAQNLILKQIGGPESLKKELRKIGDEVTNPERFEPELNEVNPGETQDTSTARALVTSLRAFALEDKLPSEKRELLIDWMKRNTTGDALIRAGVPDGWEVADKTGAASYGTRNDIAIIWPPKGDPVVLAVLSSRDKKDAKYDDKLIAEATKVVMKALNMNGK
# ASSAY OVERVIEW: Drug screening: E166Cf fluorescence in presence of bacterial β-lactamase culture
# Assay type: biochemical
# Set-up: key: −: Decline in fluorescence signal (presence of beta-lactam hydrolysis); +: No decline in fluorescence signal (absence of beta-lactam hydrolysis)
# CONDITION NOTES: antibiotic 1.0×10^−4 M, E166Cf 1.2×10^−7 M
READOUT: fluorescence signal of E166Cf (beta-lactam hydrolysis)

CC1(C)S[C@@H]2[C@H](NC(=O)COc3ccccc3)C(=O)N2[C@H]1C(=O)O [Penicillin V, penicillin V] | −
CC1(C)S[C@@H]2[C@H](NC(=O)Cc3ccccc3)C(=O)N2[C@H]1C(=O)O [Penicillin G, penicillin G] | −
CO/N=C(\C(=O)N[C@@H]1C(=O)N2C(C(=O)O)=C(COC(N)=O)CS[C@H]12)c1ccco1 [Cefuroxime, cefuroxime] | −
CO[C@@]1(NC(=O)Cc2cccs2)C(=O)N2C(C(=O)O)=C(COC(N)=O)CS[C@@H]21 [Cefoxitin, cefoxitin] | +
CC1(C)S[C@@H]2[C@H](NC(=O)[C@H](N)c3ccccc3)C(=O)N2[C@H]1C(=O)O [Ampicillin, ampicillin] | −

Below: the item to evaluate.
Query: Output measured fluorescence signal of E166Cf (beta-lactam hydrolysis) for this item: CO[C@@]1(NC(=O)C(C(=O)O)c2ccc(O)cc2)C(=O)N2C(C(=O)O)=C(CSc3nnnn3C)CO[C@@H]21 (stereo partly drawn) [Moxalactam, moxalactam]
Reply: +

----------
# EXPERIMENTAL SYSTEM: B. cereus β-lactamase II (Bacillus cereus)
# Construct: made in house; host or cells: B. subtilis 1A304 (φ105MU331); whole culture used, not purified
# ASSAY OVERVIEW: Drug screening: E166Cf fluorescence in presence of bacterial β-lactamase culture
# Format: biochemical
# Set-up: key: −: Decline in fluorescence signal (presence of beta-lactam hydrolysis); +: No decline in fluorescence signal (absence of beta-lactam hydrolysis)
# CONDITION NOTES: antibiotic 1.0×10^−4 M, E166Cf 1.2×10^−7 M
READOUT: fluorescence signal of E166Cf (beta-lactam hydrolysis)

CC1(C)S[C@@H]2[C@H](NC(=O)COc3ccccc3)C(=O)N2[C@H]1C(=O)O | −
CO[C@@]1(NC(=O)Cc2cccs2)C(=O)N2C(C(=O)O)=C(COC(N)=O)CS[C@@H]21 | +
CC1(C)S[C@@H]2[C@H](NC(=O)[C@H](N)c3ccccc3)C(=O)N2[C@H]1C(=O)O | −
